Attribute: kcat/KM (dephosphorylation of pCAP peptide)
Biological target: T1, Antp-PCP
T1 chain: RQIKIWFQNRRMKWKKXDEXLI
observed property: kcat/KM (dephosphorylation of pCAP peptide) (M⁻¹ s⁻¹)

- TCPTP (protein) MPTTIEREFEELDTQRRWQPLYLEIRNESHDYPHRVAKFPENRNRNRYRDVSPYDHSRVKLQNAENDYINASLVDIEEAQRSYILTQGPLPNTCCHFWLMVWQQKTKAVVMLNRIVEKESVKCAQYWPTDDQEMLFKETGFSVKLLSEDVKSYYTVHLLQLENINSGETRTISHFHYTTWPDFGVPESPASFLNFLFKVRESGSLNPDHGPAVIHCSAGIGRSGTFSLVDTCLVLMEKGDDINIKQVLLNMRKYRMGLIQTPDQLRFSYMAIIEGAKCIKGDSSIQKRWKELSKEDLSPAFDHSPNKIMTEKYN: 970
- VHR (protein) MSGSFELSVQDLNDLLSDGSGCYSLPSQPCNEVTPRIYVGNASVAQDIPKLQKLGITHVLNAAEGRSFMHVNTNANFYKDSGITYLGIKANDTQEFNLSAYFERAADFIDQALAQKNGRVLVHCREGYSRSPTLVIAYLMMRQKMDVKSALSIVRQNREIGPNDGFLAQLCQLNDRLAKEGKLKP: 2030
- PTP1B (protein) MEMEKEFEQIDKSGSWAAIYQDIRHEASDFPCRVAKLPKNKNRNRYRDVSPFDHSRIKLHQEDNDYINASLIKMEEAQRSYILTQGPLPNTCGHFWEMVWEQKSRGVVMLNRVMEKGSLKCAQYWPQKEEKEMIFEDTNLKLTLISEDIKSYYTVRQLELENLTTQETREILHFHYTTWPDFGVPESPASFLNFLFKVRESGSLSPEHGPVVVHCSAGIGRSGTFCLADTCLLLMDKRKDPSSVDIKKVLLEMRKFRMGLIQTADQLRFSYLAVIEGAKFIMGDSSVQDQWKELSHEDLEPPPEHIPPPPRPPKRILEPHN: 17400
- SHP2 (protein) AETTDKVKQGFWEEFETLQQQECKLLYSRKEGQRQENKNKNRYKNILPFDHTRVVLHDGDPNEPVSDYINANIIMPEFETKCNNSKPKKSYIATQGCLQNTVNDFWRMVFQENSRVIVMTTKEVERGKSKCVKYWPDEYALKEYGVMRVRNVKESAAHDYTLRELKLSKVGQGNTERTVWQYHFRTWPDHGVPSDPGGVLDFLEEVHHKQESIMDAGPVVVHCSAGIGRTGTFIVIDILIDIIREKGVDCDIDVPKTIQMVRSQRSGMVQTEAQYRFIYMAVQHYIETLQRRI: 2210
